Target: human recombinant HDAC6 (Homo sapiens)
Construct: purchased Calbiochem Inc. 382180
Sequence (Q9UBN7 whole entry): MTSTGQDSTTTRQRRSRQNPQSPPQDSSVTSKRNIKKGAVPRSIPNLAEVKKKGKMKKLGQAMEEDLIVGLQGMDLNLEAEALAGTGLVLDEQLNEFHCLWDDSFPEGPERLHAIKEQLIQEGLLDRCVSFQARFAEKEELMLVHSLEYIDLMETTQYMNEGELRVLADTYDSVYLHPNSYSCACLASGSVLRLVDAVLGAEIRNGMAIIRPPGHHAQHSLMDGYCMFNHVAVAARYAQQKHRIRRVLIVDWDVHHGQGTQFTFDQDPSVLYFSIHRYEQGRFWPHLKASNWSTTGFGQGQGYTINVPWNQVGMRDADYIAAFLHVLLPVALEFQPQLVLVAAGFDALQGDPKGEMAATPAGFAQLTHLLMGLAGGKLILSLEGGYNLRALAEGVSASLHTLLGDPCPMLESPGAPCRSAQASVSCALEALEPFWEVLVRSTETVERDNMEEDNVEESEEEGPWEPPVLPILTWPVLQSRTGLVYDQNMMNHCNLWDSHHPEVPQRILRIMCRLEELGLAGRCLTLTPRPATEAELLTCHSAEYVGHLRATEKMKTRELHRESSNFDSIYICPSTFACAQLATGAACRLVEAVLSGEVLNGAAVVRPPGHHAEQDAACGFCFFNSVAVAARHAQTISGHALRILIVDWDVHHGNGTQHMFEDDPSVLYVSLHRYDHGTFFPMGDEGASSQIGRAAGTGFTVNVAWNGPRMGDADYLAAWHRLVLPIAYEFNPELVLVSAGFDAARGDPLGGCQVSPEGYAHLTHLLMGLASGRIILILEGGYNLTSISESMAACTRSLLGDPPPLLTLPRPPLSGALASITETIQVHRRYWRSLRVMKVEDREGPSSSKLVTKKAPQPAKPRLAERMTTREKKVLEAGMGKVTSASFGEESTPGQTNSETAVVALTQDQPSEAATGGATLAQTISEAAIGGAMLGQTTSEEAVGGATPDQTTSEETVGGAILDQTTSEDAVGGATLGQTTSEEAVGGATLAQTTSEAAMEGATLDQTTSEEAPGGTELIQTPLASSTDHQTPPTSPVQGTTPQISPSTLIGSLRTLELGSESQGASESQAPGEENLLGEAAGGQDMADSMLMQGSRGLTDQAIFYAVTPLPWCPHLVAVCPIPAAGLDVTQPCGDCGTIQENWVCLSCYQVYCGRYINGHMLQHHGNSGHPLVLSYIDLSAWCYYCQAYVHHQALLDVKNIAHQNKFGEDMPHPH
Assay: HDAC6 enzyme activity inhibition (HDAC Fluorimetric Drug Discovery Kit)
Assay type: biochemical
Settings: HDAC6 over HDAC1
# maps each entry to its HDAC6 selectivity (fold)
measured metric: HDAC6 selectivity (fold)

molecule="FC(F)c1nnc(-c2ccc(Cn3cc(-c4ccc5c(c4)CNC5)nn3)nc2)o1 [Compound 4539]" measured_metric="HDAC6 selectivity (fold)" unit=fold assay_result=776
molecule="Fc1cc(-c2nnc(C(F)F)o2)ccc1Cn1cc(-c2ccc3c(c2)CN(C2COC2)C3)nn1 [Compound 4519]" measured_metric="HDAC6 selectivity (fold)" unit=fold assay_result=994
molecule="Fc1cc(-c2nnc(C(F)F)o2)cnc1Cn1cc(-c2cccc3[nH]ccc23)nn1 [Compound 18921]" measured_metric="HDAC6 selectivity (fold)" unit=fold assay_result=1592
molecule="Fc1cc(-c2nnc(C(F)F)o2)ccc1Cn1cc(-c2cn[nH]c2)nn1 [Compound 17261]" measured_metric="HDAC6 selectivity (fold)" unit=fold assay_result=1012
molecule="Cc1csc(-c2cn(Cc3ccc(-c4nnc(C(F)F)o4)cc3F)nn2)n1 [Compound 17854]" measured_metric="HDAC6 selectivity (fold)" unit=fold assay_result=599
molecule="Fc1cc(-c2nnc(C(F)F)o2)cnc1Cn1cc(-c2ccc3cc[nH]c3c2)nn1 [Compound 18918]" measured_metric="HDAC6 selectivity (fold)" unit=fold assay_result=1089
molecule="CN(C)C1CCN(Cc2ccc(-c3cn(Cc4ccc(-c5nnc(C(F)F)o5)cc4)nn3)cc2)CC1 [Compound 4554]" measured_metric="HDAC6 selectivity (fold)" unit=fold assay_result=773
molecule="Fc1cc(-c2nnc(C(F)F)o2)ccc1Cn1cc(-c2ccccc2CNC2CCC2)nn1 [Compound 4589]" measured_metric="HDAC6 selectivity (fold)" unit=fold assay_result=172
